system: ACHN; assay: NCI tumour cell line growth inhibition, 48 h
The source made the active and inactive calls. No stated cut-off is given here; in the data, active = GI50 up to about 1.1 µM and inactive = higher.
Labels: active, inactive

>  <Compound>
COc1ccc(-c2nc(SCC(=O)N/N=C/c3ccc(N(C)C)cc3)[nH]c2-c2ccc(OC)cc2)cc1

>  <Answer label>
inactive

$$$$
>  <Compound>
CCOP(=O)(OCC)/C(=C/NC(=S)c1ccncc1)C(=O)OC

>  <Answer label>
inactive

$$$$
>  <Compound>
N#Cc1ccc(Cc2ccccn2)cc1Cl

>  <Answer label>
inactive

$$$$
>  <Compound>
COC(=O)/C(=N/NC(N)=O)C(C(=O)C(=O)Nc1ccc(C)cc1)c1nc2ccc(C(=O)c3ccccc3)cc2nc1O (stereo not drawn)

>  <Answer label>
inactive

$$$$
>  <Compound>
NNC(=O)CC(=O)Nc1ccccc1F

>  <Answer label>
inactive

$$$$
>  <Compound>
CCOC(=O)Nc1ccc(S(=O)(=O)OC)cc1.CCOC(=O)Nc1ccc(S(=O)(=O)OC)cc1.NNC(=O)c1ccncc1

>  <Answer label>
inactive

$$$$
>  <Compound>
S=C1CCSc2c(ccc3ccccc23)N1

>  <Answer label>
inactive

$$$$
>  <Compound>
CC1CCC2C(C)C3C(CC4C5CC=C6CC(OC7OC(CO)C(O)C(OC8OC(CO)C(O)C(O)C8O)C7OC7OC(C)C(O)C(O)C7O)CCC6(C)C5CCC43C)N2C1 (stereo not drawn)

>  <Answer label>
inactive

$$$$
>  <Compound>
CC1(C(=O)Nc2ccc3cc4ccccc4cc3c2)CC2(C)CC(C)(C1)C(O)NC2=O (stereo not drawn)

>  <Answer label>
inactive

$$$$
>  <Compound>
CCc1n[nH]c(=O)n1N1C(=O)CCC1=O

>  <Answer label>
inactive

$$$$
>  <Compound>
Cc1cc(C)c([O-])c(-[n+]2c(-c3ccccc3)cc(-c3ccccc3)cc2-c2ccccc2)c1

>  <Answer label>
inactive

$$$$
>  <Compound>
CC(=O)OC1CC2CCN3C(=O)c4cc5c(cc4[C@H](C1OC(C)=O)C23)OCO5 (stereo partly drawn)

>  <Answer label>
inactive

$$$$
>  <Compound>
C=C1C(=O)OC2C1C(OC(=O)/C(=C/C)COC(C)=O)CC1(CO1)C1C(OC(=O)/C(=C/C)CO)C=C(C)C21 (stereo not drawn)

>  <Answer label>
inactive

$$$$
>  <Compound>
CC(C)(C)OC(=O)NCCCC(=O)NC1(c2cc3ccccc3s2)CCCCC1

>  <Answer label>
inactive

$$$$
>  <Compound>
O=c1c2cc(Cl)ccc2sc2cccc(Cl)c12

>  <Answer label>
inactive

$$$$
>  <Compound>
CCn1c(C)nn2c(=O)c3ccccc3nc2c1=O

>  <Answer label>
inactive

$$$$
>  <Compound>
O=C(OCCOC(=O)c1ccc2c(c1)C1(SCCS1)c1ccccc1-2)c1ccc2c(c1)C1(SCCS1)c1ccccc1-2

>  <Answer label>
inactive

$$$$
>  <Compound>
COc1ccc(/C=C2\C(=O)Nc3ccccc32)cc1OC

>  <Answer label>
inactive

$$$$
>  <Compound>
CC[N+](C)(CC)CCN1C(=O)c2ccccc2S1(=O)=O

>  <Answer label>
inactive

$$$$
>  <Compound>
COP(=O)(OC)C(N)Cc1c[nH]c2ccccc12 (stereo not drawn)

>  <Answer label>
inactive

$$$$
>  <Compound>
Cc1cc(C)c(-n2c(-c3ccccc3)cs/c2=N\N=C2C=C(C(C)(C)C)C(=O)C(C(C)(C)C)=C2)c(C)c1

>  <Answer label>
inactive

$$$$
>  <Compound>
CCOC(=O)C(=CNC(=S)Nc1c(CC)cccc1CC)C(=O)OCC

>  <Answer label>
inactive

$$$$
>  <Compound>
CCOC(=O)C(=CN1CCNC1=S)C(=O)OCC

>  <Answer label>
inactive

$$$$
>  <Compound>
CC(SC(=S)N1CCOCC1)c1cc2oc(=O)n(C)c2cc1Cl (stereo not drawn)

>  <Answer label>
inactive

$$$$
>  <Compound>
COC(=O)c1ccccc1C1CN=NC12Cc1cc(C)cc(C)c1C2=O (stereo not drawn)

>  <Answer label>
inactive

$$$$
>  <Compound>
CN(C)C(=S)SN(C)C(=O)Nc1ccccc1

>  <Answer label>
inactive

$$$$
>  <Compound>
O=C1CCC(NC(=O)Cc2ccc(O)cc2)C(=O)N1 (stereo not drawn)

>  <Answer label>
inactive

$$$$
>  <Compound>
O=C(c1ccco1)N1CCCN(C(=O)c2ccco2)C1=S

>  <Answer label>
inactive

$$$$
>  <Compound>
CCn1c(C)nc([N+](=O)[O-])c1Sc1ncc[nH]1

>  <Answer label>
inactive

$$$$
>  <Compound>
N=C(N)N/N=C/c1c(-c2cc([N+](=O)[O-])c(Cl)cc2Cl)nc2n1CCS2

>  <Answer label>
inactive

$$$$
>  <Compound>
Nc1ccc2ccc(N3CCNCC3)nc2n1

>  <Answer label>
inactive

$$$$
>  <Compound>
Cc1cn([C@@H]2O[C@H](CO)[C@@H](O)[C@@H]2O)c(=O)[nH]c1=O

>  <Answer label>
inactive

$$$$
>  <Compound>
COc1ccc2oc(C(=O)N3CC(CCl)c4ccc(N)cc43)cc2c1 (stereo not drawn)

>  <Answer label>
active

$$$$
>  <Compound>
CC1C(=O)N=C2C(=CN(Cc3ccccc3)c3ccccc32)C(=O)N1C (stereo not drawn)

>  <Answer label>
inactive

$$$$
>  <Compound>
CCOC(=O)c1c(N2CCOCC2)[nH]c(=O)c(C(c2cccs2)c2c(O)c(C(=O)OCC)c(N3CCOCC3)[nH]c2=O)c1O

>  <Answer label>
inactive

$$$$
>  <Compound>
CCOc1ccc2c(C)cc(=O)oc2c1

>  <Answer label>
inactive

$$$$
>  <Compound>
C=CC(C)(C)C1(CC(OC)OC)C(=O)N(C)c2ccccc21 (stereo not drawn)

>  <Answer label>
inactive

$$$$
>  <Compound>
O=C1CCC2(CCO1)OCCO2

>  <Answer label>
inactive

$$$$
>  <Compound>
COc1cc2cc(C(=O)N3CC(COS(C)(=O)=O)c4c3cc(N)c3ccccc43)[nH]c2c(OC)c1OC (stereo not drawn)

>  <Answer label>
active

$$$$
>  <Compound>
C(CCCCc1nnc(N2CCCCC2)o1)CCCc1nnc(N2CCCCC2)o1

>  <Answer label>
inactive

$$$$
>  <Compound>
CC(=N\c1ccncc1)/C(C)=N/c1ccncc1

>  <Answer label>
inactive

$$$$
>  <Compound>
CC1CC(C[N+](=O)[O-])CC2(C1)OCCO2 (stereo not drawn)

>  <Answer label>
inactive

$$$$
>  <Compound>
O=C1[C@@H]2C3c4ccccc4C([C@@H]2C(=O)N1c1ccccc1)S3(=O)=O

>  <Answer label>
inactive

$$$$

The measurements presented in this section are drawn from ChEMBL document CHEMBL1201862.
